assay: Pharmacokinetics and Tissue Distribution in the MV4-11 xenograft model; assay type: in vivo, mice; details: female, CB-17 SCID, mouse; plasma; 5 mg/kg single intravenous dose
MEASURED_METRIC: AUC(0-inf) (ng·h/mL)
Numbers only, in ng·h/mL.

Ask: Consider the compound Cc1sc2c(c1C)C(c1ccc(Cl)cc1)=N[C@@H](CC(=O)N1CCC(CN3CCN(Cc4ccc(-n5c(O)nnc5-c5cc(C(C)C)c(O)cc5O)cc4)CC3)CC1)c1nnc(C)n1-2.Cl and give its recorded AUC(0-inf).
Reply: 3020

---

biological target: BRD4 (BD1+BD2) (Homo sapiens); construct: 1.8 μg/ml recombinant BRD4 (BD1+BD2 domains) protein; details: read-out: BRD4 Binding Potency
pIC50: −log10 of the molar value.
MEASURED_METRIC: pIC50

Illustrative cases are given below, each with its answer.
Cc1sc2c(c1C)C(c1ccc(Cl)cc1)=N[C@@H](CC(=O)N[C@H](C)c1cccc(CN3CCC(Cc4ccc(-n5c(O)nnc5-c5cc(C(C)C)c(O)cc5O)cc4)CC3)c1)c1nnc(C)n1-2	6.00 to 7.00
Cc1cc(-c2nnc(C(=O)NCCN3CCCCC3)n2-c2ccc(CN3CCN(CC4CCN(C(=O)C[C@@H]5N=C(c6ccc(Cl)cc6)c6c(sc(C)c6C)-n6c(C)nnc65)CC4)CC3)cc2)c(O)cc1O	> 7.00
Cc1sc2c(c1C)C(c1ccc(Cl)cc1)=NC(CC(=O)N[C@H](C)c1ccc(CN3CCN(Cc4ccc(-n5c(O)nnc5-c5cc(C(C)C)c(O)cc5O)cc4)CC3)cc1)c1nnc(C)n1-2 (stereo in doubt)	6.00 to 7.00
Cc1sc2c(c1C)C(c1ccc(Cl)cc1)=N[C@@H](CC(=O)N1CCN(Cc3ccc4c(c3)CN(C(=O)c3cc(C(C)C)c(O)cc3O)C4)CC1)c1nnc(C)n1-2	6.00 to 7.00

// input: 3 compounds below; output: pIC50 for each
1. Cc1sc2c(c1C)C(c1ccc(Cl)cc1)=N[C@@H](CC(=O)NCCOCCN1CCC(Cc3ccc(-n4c(O)nnc4-c4cc(C(C)C)c(O)cc4O)cc3)CC1)c1nnc(C)n1-2
2. Cc1sc2c(c1C)C(c1ccc(Cl)cc1)=N[C@@H](CC(=O)N1CCC(CN3CCN(Cc4ccc(-n5c(C(=O)NCCN6CCCCC6)nnc5-c5ccc(O)cc5O)cc4)CC3)CC1)c1nnc(C)n1-2
3. Cc1sc2c(c1C)C(c1ccc(Cl)cc1)=N[C@@H](CC(=O)NCCOc1cccc(CN(C)Cc3ccc(-n4c(O)nnc4-c4cc(C(C)C)c(O)cc4O)cc3)c1)c1nnc(C)n1-2

Reply:
> 7.00
> 7.00
< 6.00

// input: 2 compounds below; output: pIC50 for each
1. CCc1cc(C(=O)N2Cc3ccc(CN4CCN(C(=O)C[C@@H]5N=C(c6ccc(Cl)cc6)c6c(sc(C)c6C)-n6c(C)nnc65)CC4)cc3C2)c(O)cc1O
2. CCn1c(=O)/c(=C2\Sc3ccccc3N2C)s/c1=C\c1cccc[n+]1CCCNC(=O)C[C@@H]1N=C(c2ccc(Cl)cc2)c2c(sc(C)c2C)-n2c(C)nnc21

Reply:
1: 6.00 to 7.00; 2: > 7.00

---

molecular target: BRD4 (BD1+BD2) (Homo sapiens, UniProt O60885); construct: 1.8 μg/ml recombinant BRD4 (BD1+BD2 domains) protein; details: read-out: BRD4 Binding Potency
MEASURED_METRIC: IC50

Cc1sc2c(c1C)C(c1ccc(Cl)cc1)=N[C@@H](CC(=O)N1CCC(CN3CCN(Cc4ccc(-n5c(O)nnc5-c5ccc(O)cc5O)cc4)CC3)CC1)c1nnc(C)n1-2	< 100 nM

// input: 3 compounds below; output: IC50 for each
1. Cc1sc2c(c1C)C(c1ccc(Cl)cc1)=N[C@@H](CCN(C)CCOCCOc1ccc(-n3c(O)nnc3-c3cc(C(C)C)c(O)cc3O)cc1)c1nnc(C)n1-2
2. CCc1cc(-c2nnc(C(=O)NCCN3CCCCC3)n2-c2ccc(CN3CCN(CC4CCN(C(=O)C[C@@H]5N=C(c6ccc(Cl)cc6)c6c(sc(C)c6C)-n6c(C)nnc65)CC4)CC3)cc2)c(O)cc1O
3. Cc1sc2c(c1C)C(c1ccc(Cl)cc1)=N[C@@H](CC(=O)N1CCC(CN3CCC(Cc4ccc(-n5c(C(=O)NCC(F)(F)F)nnc5-c5cc(C(C)C)c(O)cc5O)cc4)CC3)CC1)c1nnc(C)n1-2

Reply:
1: > 1000 nM; 2: < 100 nM; 3: 100 to 1000 nM
